# Tested on: Plasmodium berghei
# Method summary: Luciferase/luciferin-expressing antifolate-resistant parasites were used to infect a culture of HepG2 cells that were pre-incubated with compounds. Infected hepatocytes emit light due to the luciferase reaction. Assay results are presented as the percent inhibition of light emission compared to control. […]
# Type: functional
# Condition summary: sporozoite, read-out: LUCIFERASE INFECTION ASSAY - IC90
Overview of reported IC90 across a group of molecules:
Endpoint label: IC90 (µM)

INSERT INTO results (molecule, system_tested, value_relation_sign, test_result) VALUES
  ('CC(=O)N/C(=C\c1ccccc1)C(=O)OCc1ncc(-c2ccccc2)o1', 'Plasmodium berghei', '>', 10),
  ('O=C(c1ccccc1)c1ccc(OCc2coc(-c3ccccc3)n2)cc1', 'Plasmodium berghei', '>', 10),
  ('O/N=C1/c2ccccc2-c2nnc(-c3cccc(OC(F)(F)F)c3)cc21', 'Plasmodium berghei', '=', 1.49),
  ('Clc1ccc2c(NCc3ccccc3)ccnc2c1', 'Plasmodium berghei', '=', 4.19),
  ('FC(F)(F)c1cccc(-c2cc3c(Nc4ccc5c(c4)OCCO5)nccc3[nH]2)c1', 'Plasmodium berghei', '=', 5.7),
  ('Cc1cc(C)c(Nc2nc(-c3c(-c4ccccc4)noc3C)cs2)c(C)c1', 'Plasmodium berghei', '=', 5.3),
  ('O=C(Nc1cc(Cl)ccc1OC(=O)c1ccc(C(F)(F)F)cc1)c1ccc(C(F)(F)F)cc1', 'Plasmodium berghei', '=', 2.9),
  ('COc1ccc(CN(Cc2n/c(=N\c3ccccc3C)nc(N)[nH]2)Cc2n/c(=N\c3ccccc3C)nc(N)[nH]2)cc1OC', 'Plasmodium berghei', '=', 4.51),
  ('CC(=O)N1CCc2cc(C(=O)C(C)OC(=O)/C(=C/c3ccc(F)cc3)c3cccs3)ccc21 (configuration not stated)', 'Plasmodium berghei', '>', 10),
  ('NS(=O)(=O)c1ccc(N2CCOCC2)c(C(=O)NCCOc2ccc3ccccc3c2)c1', 'Plasmodium berghei', '>', 10),
  ('COCOc1ccc(-c2cc(-c3cccc4cccnc34)cnc2N)cc1', 'Plasmodium berghei', '>', 9.23),
  ('CC(C)CNC(=O)CN1CCN(c2nc(-c3cccs3)nc3sc4c(c23)CCC4)CC1', 'Plasmodium berghei', '=', 3.94),
  ('CC(C)(C)c1ccc(-c2cc3[nH]c(-c4ccccc4)cc(=O)n3n2)cc1', 'Plasmodium berghei', '=', 3.76),
  ('Oc1cccc(-c2cnc3cnc(-c4ccccc4Cl)cn23)c1', 'Plasmodium berghei', '>', 10.3),
  ('CCOC(=O)c1c(NC(=O)Cn2c(=O)c(C#N)c3n(c2=O)CCC3)sc(C)c1CC', 'Plasmodium berghei', '>', 10),
  ('COc1cc(-c2cc(-c3cc(C)c(O)c(C)c3)cnc2N)ccc1O', 'Plasmodium berghei', '=', 3.93),
  ('Cc1cc(C(=O)N/N=C/c2ccc(Sc3ncccn3)c([N+](=O)[O-])c2)c(C)n1-c1ccccc1', 'Plasmodium berghei', '>', 10),
  ('CCN(c1ccccc1)S(=O)(=O)c1ccc(NNC(=O)Nc2cccc3ccccc23)nc1', 'Plasmodium berghei', '>', 10),
  ('Cc1ccc(/C=C/C(=O)NC2CCCc3ccccc32)o1 (configuration not stated)', 'Plasmodium berghei', '>', 10),
  ('CCc1nc(COC(=O)c2c(C)nsc2NC)cs1', 'Plasmodium berghei', '=', 5.52),
  ('Cc1cc2ccccn2c1C(=O)c1ccc(-c2ccccc2)cc1', 'Plasmodium berghei', '=', 3.77),
  ('CCOc1ccc(S(=O)(=O)N(Cc2nnc(-c3cccs3)o2)c2ccccc2OC)cc1', 'Plasmodium berghei', '>', 10),
  ('CC(C)(C)c1cc(C(=O)Nc2nc(C(N)CCc3ccccc3)cs2)n(Cc2ccccc2)n1 (configuration not stated)', 'Plasmodium berghei', '>', 6.97),
  ('O=C(C1CC1)N1CCc2sccc2C1c1ccc(Cl)cc1 (configuration not stated)', 'Plasmodium berghei', '>', 10.4),
  ('CC(=O)c1ccc(-c2cnc(N)c(-c3cccc(N(C)C)c3)c2)s1', 'Plasmodium berghei', '=', 4.08),
  ('O=C(NNC(=O)c1nn(-c2ccccc2)cc1O)c1ccc2c(c1)OCO2', 'Plasmodium berghei', '=', 6.28),
  ('COc1ccc2c(c1)nnc1nnc(SCC(=O)N3CCOCC3)n12', 'Plasmodium berghei', '>', 9.16),
  ('Cc1c(-c2ccccc2)oc2c(C(=O)Nc3ccc(N4CCOCC4)c4ccncc34)cccc2c1=O', 'Plasmodium berghei', '>', 10),
  ('CC(=O)Nc1cccc(-c2ccc3ncc(-c4ccccc4)n3n2)c1', 'Plasmodium berghei', '>', 10),
  ('CCOC(=O)c1sc(N)c(C#N)c1CSc1nnc(Nc2ccc(CC)cc2)s1', 'Plasmodium berghei', '=', 5.14),
  ('CCCn1nc(C(=O)NCCc2ccc(-n3cccn3)cc2)c2ccccc2c1=O', 'Plasmodium berghei', '=', 4.06),
  ('O=C(CSCc1nc(-c2ccc(Cl)cc2)cs1)NNS(=O)(=O)c1ccc(Cl)cc1', 'Plasmodium berghei', '>', 6.76),
  ('CC(Cc1cccs1)N(Cc1ccc(Cl)cc1)C(=O)c1ccc(Cl)c(S(=O)(=O)N2CCCCC2)c1 (configuration not stated)', 'Plasmodium berghei', '>', 10),
  ('COc1ccc(CNC(=O)NC2CCCCCCC2)cn1', 'Plasmodium berghei', '>', 10),
  ('NC(=NC(=S)Nc1cc(Cl)ccc1Cl)c1ccccc1', 'Plasmodium berghei', '>', 10.2),
  ('CCN(Cc1ccccc1)C(=O)c1cc(-c2ccccc2)nc2c1cnn2CC', 'Plasmodium berghei', '>', 10),
  ('O=[N+]([O-])c1c(N2CCOCC2)ccc2nsnc12', 'Plasmodium berghei', '>', 12.4);

====

# Test system: Plasmodium berghei
# Method summary: Luciferase/luciferin-expressing antifolate-resistant parasites were used to infect a culture of HepG2 cells that were pre-incubated with compounds. Infected hepatocytes emit light due to the luciferase reaction. Assay results are presented as the percent inhibition of light emission compared to control. […]
# Type: functional
# Condition summary: sporozoite, read-out: LUCIFERASE INFECTION ASSAY - IC90
Endpoint label: IC90

INSERT INTO results (item_smiles, system_tested, test_result) VALUES
  ('Cc1nc2ccccn2c1C(=O)N/N=C/c1c(-c2ccccc2)n(-c2ccccc2)c2ccccc12', 'Plasmodium berghei', '> 10 µM'),
  ('Cc1sc2nc(-c3cccnc3)nc(NCCc3ccc(S(N)(=O)=O)cc3)c2c1C', 'Plasmodium berghei', '> 10 µM'),
  ('Cc1cc(=O)n2nc(CSc3nc4ccccc4c(=O)n3C3CCCC3)sc2n1', 'Plasmodium berghei', '> 10 µM'),
  ('COc1ccccc1-c1cc(-c2cccc(OC(F)(F)F)c2)cnc1N', 'Plasmodium berghei', '> 9.16 µM'),
  ('O=C(Nc1ccc(F)c(Cl)c1)c1ccccc1O', 'Plasmodium berghei', '> 12.4 µM');

====

# System: Plasmodium berghei
# Method summary: Luciferase/luciferin-expressing antifolate-resistant parasites were used to infect a culture of HepG2 cells that were pre-incubated with compounds. Infected hepatocytes emit light due to the luciferase reaction. Assay results are presented as the percent inhibition of light emission compared to control. […]
# Format: functional
# Condition summary: sporozoite, read-out: LUCIFERASE INFECTION ASSAY - IC50
Endpoint label: IC50

INSERT INTO measurements (molecule, endpoint_label, test_result) VALUES
  ('CCCN(CC(=O)Nc1ccccc1C)C(=O)Cn1nnc2ccccc21', 'IC50', '> 10 µM'),
  ('COc1cc(-n2nnnc2-c2ccc([N+](=O)[O-])cc2)c(Cl)cc1Cl', 'IC50', '> 9.01 µM'),
  ('COC(=O)c1c(NC(C)=O)c2cc(NC(C)CC(C)C)cnc2n1CCC(C)C (stereo not drawn)', 'IC50', '> 8.2 µM'),
  ('CC(C)(C)NC(=S)Nc1cc(C(F)(F)F)c(Cl)cc1Cl', 'IC50', '> 9.56 µM'),
  ('CCC(=O)c1ccc(OCCCCn2cnc3ccccc32)cc1', 'IC50', '> 10 µM'),
  ('Cc1cccc(NC(=O)CN(C)C(=O)/C=C/c2ccccc2)c1C', 'IC50', '> 10 µM'),
  ('COc1ccc(-n2c(C)cc(C(=O)COC(=O)[C@@H](NS(=O)(=O)c3ccc4c(c3)OCCO4)C(C)C)c2C)cc1', 'IC50', '> 10 µM'),
  ('FC(F)(F)Oc1ccc(Nc2cc(-c3cccc(Cl)c3)ncn2)cc1', 'IC50', '> 9.02 µM');

====

# Test system: Plasmodium berghei
# Method summary: Luciferase/luciferin-expressing antifolate-resistant parasites were used to infect a culture of HepG2 cells that were pre-incubated with compounds. Infected hepatocytes emit light due to the luciferase reaction. Assay results are presented as the percent inhibition of light emission compared to control. […]
# Type: functional
# Condition summary: sporozoite, read-out: LUCIFERASE INFECTION ASSAY - IC90
Endpoint label: IC90

INSERT INTO measurements (compound, test_result) VALUES
  ('O=C(NNC(=O)c1ccccc1OCC1CCCO1)c1cc2ccccc2cc1O (centres undefined)', '4.01 µM'),
  ('Cc1ccc(C(C)C)c(OCCCNCCc2ccccc2)c1', '9.99 µM'),
  ('Cc1ccc(NC(=O)COc2ccc3c(c2C)OC(C)(C)CC3)cc1', '> 9.72 µM'),
  ('O=C(/C=N/Nc1ncc(C(F)(F)F)cc1Cl)c1ccccn1', '> 10 µM'),
  ('CCN1C(=O)N(Cc2cccc(OC)c2)C(=O)C12CCN(C(C)CCc1c[nH]c3ccccc13)CC2 (centres undefined)', '5.56 µM'),
  ('O=C(CN1CCN(S(=O)(=O)c2cccs2)CC1)Nc1ccccc1C(=O)c1ccccc1', '> 10 µM'),
  ('Cn1c(-c2ccc(Cl)cc2)csc1=Nc1ccc(Cl)c(Cl)c1', '3.46 µM'),
  ('O=C(COC(=O)c1cn(-c2ccccc2)nc1-c1ccccc1)Nc1ccc(Cl)c(S(=O)(=O)N2CCOCC2)c1', '> 10 µM'),
  ('O=c1[nH]nc(Sc2ncc([N+](=O)[O-])s2)n1-c1ccccc1C(F)(F)F', '> 8.48 µM'),
  ('O=C(Nc1ccccc1)Nc1nc2ccc([N+](=O)[O-])cc2s1', '7.31 µM'),
  ('COc1cc(/C=C/C(=O)c2ccc(C#N)cc2)cc(Br)c1OCC(=O)N(C)C', '> 10 µM'),
  ('COc1ccc(NCC2(c3ccnc(-c4ccccc4Cl)c3)CC2)cc1', '8.59 µM'),
  ('CC(C)c1cccc(Nc2cc3c(cn2)nc(Nc2ccccc2)n3C)c1', '> 10 µM'),
  ('O=C1OC(c2ccccc2)=N/C1=C\c1ccc([N+](=O)[O-])s1', '> 11 µM'),
  ('Cc1cccc(Nc2nc(S(=O)(=O)c3ccc(Cl)cc3)c(Cl)s2)c1', '> 10 µM'),
  ('CCCNC(=O)COC(=O)c1cc(Br)ccc1N', '> 10 µM'),
  ('C=CCn1c(COc2ccc(C(C)(C)C)cc2)nnc1SCC(=O)N(C)C1CCCCC1', '> 10 µM'),
  ('C=CCn1cnnc1SCC(=O)c1cccn1C', '> 10 µM'),
  ('CCCc1ccc(-c2nc(-c3cccs3)no2)cc1', '0.0812 µM'),
  ('CC(C)c1ccc(-c2cnc3sc(NC4CCC(O)CC4)nn23)cc1 (centres undefined)', '> 9.26 µM'),
  ('O=C(NCCSCc1csc2ccc(Cl)cc12)Nc1ccccc1', '> 8.75 µM'),
  ('O=C(NNC(=O)c1csnn1)c1ccc(Cl)cc1', '0.897 µM'),
  ('CCc1ccccc1Nc1c(Cl)c(C)nc2ncnn12', '> 11.5 µM'),
  ('CC(C(=O)Nc1cc([N+](=O)[O-])ccc1Cl)N(C)CC(=O)Nc1ccc(Cl)c(C(F)(F)F)c1 (centres undefined)', '> 10 µM');
